# Assay Info: self-splicing fitness, log relative to wild type (ln ratio); higher = more splicing; Tetrahymena group I intron in knt gene, E. coli kanamycin selection, DiMSum; sequences stand for … in CUCUCU…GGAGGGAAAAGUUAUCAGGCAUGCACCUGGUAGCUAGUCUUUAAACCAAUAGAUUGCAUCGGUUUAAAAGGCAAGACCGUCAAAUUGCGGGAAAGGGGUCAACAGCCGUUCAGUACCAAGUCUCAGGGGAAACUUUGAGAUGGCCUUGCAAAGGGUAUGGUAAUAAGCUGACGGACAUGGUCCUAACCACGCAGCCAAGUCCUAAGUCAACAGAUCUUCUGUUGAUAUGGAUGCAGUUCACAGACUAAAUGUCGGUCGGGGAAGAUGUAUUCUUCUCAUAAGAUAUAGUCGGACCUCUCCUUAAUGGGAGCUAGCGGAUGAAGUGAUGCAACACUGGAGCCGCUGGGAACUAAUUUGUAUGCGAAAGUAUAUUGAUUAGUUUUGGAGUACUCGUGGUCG;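 further: selection with 25 µg/mL kanamycin versus none on LB agar overnight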
# Assay Setup: 30 °C
Reported Endpoint: self-splicing fitness (ln)
Note: the reply should be a number with no unit written.

For orientation, consider the following solved cases.
>>> observed_value("UUCCAGCAAUAUUACGCAGC")
-3.77
>>> observed_value("CGAGAGCAAUAUUACGUGUA")
-3.34
>>> observed_value("CUUUAGCAAUAUUACGCCGU")
-2.68

*Q* Recorded self-splicing fitness (ln) of `GAUUAGCAAUAUUACGGCGC` , please.
*A* 0.24

*Q* Recorded self-splicing fitness (ln) of `CAACAGCAAUAUUACGCGUG` , please.
*A* -4.02

*Q* Recorded self-splicing fitness (ln) of `GCUUAGCAAUAUUACGAUAG` , please.
*A* -2.11

*Q* Recorded self-splicing fitness (ln) of `ACCUAGCAAUAUUACGAGGG` , please.
*A* -3.45

*Q* Recorded self-splicing fitness (ln) of `CGGCAGCAAUAUUACGAUUG` , please.
*A* -0.72

*Q* Recorded self-splicing fitness (ln) of `GGCGAGCAAUAUUACGUAAC` , please.
*A* -2.52

*Q* Recorded self-splicing fitness (ln) of `GUAAAGCAAUAUUACGUAAA` , please.
*A* -2.08

*Q* Recorded self-splicing fitness (ln) of `ACUGAGCAAUAUUACGUUAC` , please.
*A* -3.95

*Q* Recorded self-splicing fitness (ln) of `GCGAAGCAAUAUUACGGAGU` , please.
*A* -3.66

*Q* Recorded self-splicing fitness (ln) of `UCUCAGCAAUAUUACGUCGU` , please.
*A* -2.11

*Q* Recorded self-splicing fitness (ln) of `GCAUAGCAAUAUUACGACGC` , please.
*A* -0.867

*Q* Recorded self-splicing fitness (ln) of `ACUCAGCAAUAUUACGCGAC` , please.
*A* -2.16

*Q* Recorded self-splicing fitness (ln) of `GCGUAGCAAUAUUACGCUCU` , please.
*A* -3

*Q* Recorded self-splicing fitness (ln) of `UCUAAGCAAUAUUACGUGCA` , please.
*A* -1.2

*Q* Recorded self-splicing fitness (ln) of `GCGAAGCAAUAUUACGUUUU` , please.
*A* -3.16

*Q* Recorded self-splicing fitness (ln) of `ACGUAGCAAUAUUACGACGA` , please.
*A* 0.179

*Q* Recorded self-splicing fitness (ln) of `GCAAAGCAAUAUUACGAUGU` , please.
*A* -2.89

*Q* Recorded self-splicing fitness (ln) of `AUGAAGCAAUAUUACGGGGC` , please.
*A* -4.78

*Q* Recorded self-splicing fitness (ln) of `UAGGAGCAAUAUUACGUCCG` , please.
*A* -0.262

*Q* Recorded self-splicing fitness (ln) of `CUACAGCAAUAUUACGGAGG` , please.
*A* -2.21

*Q* Recorded self-splicing fitness (ln) of `AGGAAGCAAUAUUACGAGUA` , please.
*A* -2.59
